# Test system: RARg homodimer (NR concentration 270 nM)
# protocol-notes: PBM binding z-score (relative to random genomic background probes); higher = stronger binding; sequences stand for … in GC…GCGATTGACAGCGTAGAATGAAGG
assay-metric: PBM binding z-score

1. CCGACAGGGGCATAAGGTTACCATAAGCCAGCCC ... 1.62
2. ACTAGCAGGCCAAGGGTTACTCAAGATTAGTCCG ... 0.852
3. CCTACTAGGCCATTCAGAGGTCATTGATCATATG ... 3.55
4. GGAACGAGGCCAAAGTTGATAGCATCTGTCGACG ... 0.688
5. TGAATGAGGTTATAAGCTCAGGGAACGTTGCAAA ... 0.731
6. CTACCAAGGTGAACAAGGGCGTTGATTACTATTC ... 0.99
7. CAAATTAGGTCAAGGTCAAAGTCGGTTTGTGCCA ... 7
8. CCACACAGGTGAAAGGTAACTCAGTCTGGTACGC ... 0.76
9. ATATGTAGGTTACATCCCGGTCATTCAGGCTATG ... 1.76
10. ATCTCTACGTAAGACTCAGTTCAGTGAAGAACGC ... 0.393
11. CCAGACAGGTGAAAGGTACCTCAGTCTGGTACGC ... 0.394
12. TCTATTAGTTGAAGGTCAACCGACGAGTCCGTTT ... 4.39
